Sourced from the supplement of paper PMC7125110

B1: glmS ribozyme (parent)
chain: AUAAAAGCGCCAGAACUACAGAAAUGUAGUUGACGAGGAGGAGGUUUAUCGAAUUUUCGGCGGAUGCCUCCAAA

# Variants of: B1
# assay: self-cleavage kobs at 2500 uM GlcN6P; higher = faster cleavage; RNA array
# condition notes: with glucosamine-6-phosphate
Fewer inactive variants are shown than the library holds.
self-cleavage kobs at 2500 uM GlcN6P values, listed per item

{"columns": ["mutant label", "unit text", "sign", "self-cleavage kobs at 2500 uM GlcN6P"],
 "data": [
  ["C10U G40C G44U", "s⁻¹", "<", "1e-05"],
  ["A12U G13U", "s⁻¹", "=", "9.95e-05"],
  ["G35A U47C", "s⁻¹", "<", "1e-05"],
  ["C16U U47A", "s⁻¹", "=", 0.0118],
  ["C10G G41C", "s⁻¹", "<", "1e-05"],
  ["C10G G40C C70G", "s⁻¹", "<", "1e-05"],
  ["A14G A48G", "s⁻¹", "=", 0.000232],
  ["C8A G29A C50G G66A C70G", "s⁻¹", "=", "7.56e-05"],
  ["A12C U46C C70A", "s⁻¹", "=", "3.42e-05"],
  ["A33C G62C", "s⁻¹", "<", "1e-05"],
  ["C10A G51U G63C", "s⁻¹", "<", "1e-05"],
  ["G7A A39G A64C C71U", "s⁻¹", "<", "1e-05"],
  ["C34G U69A", "s⁻¹", "=", "3.05e-05"],
  ["G51U U56A G63U", "s⁻¹", "<", "1e-05"],
  ["U45C A52G C70U", "s⁻¹", "=", "6.92e-05"],
  ["U30G U31A U65A", "s⁻¹", "=", 0.000896],
  ["G41U G43U", "s⁻¹", "<", "1e-05"],
  ["U45G U55C", "s⁻¹", "=", 0.00273],
  ["A14C G32U", "s⁻¹", "=", 0.000576],
  ["C11A A39U", "s⁻¹", "=", "7e-05"],
  ["C34U C67U", "s⁻¹", "<", "1e-05"],
  ["G32U A53G", "s⁻¹", "=", 0.000375],
  ["A15U G32A A39U C71U", "s⁻¹", "=", 0.000236],
  ["G9U A12C U30C", "s⁻¹", "<", "1e-05"],
  ["C10A G41C A48U", "s⁻¹", "<", "1e-05"],
  ["G29A U47C", "s⁻¹", "=", 0.000223],
  ["C34A G51U C67U", "s⁻¹", "=", 0.00014],
  ["G32A A39U U56A", "s⁻¹", "=", "5.98e-05"],
  ["A33C G51A A53U", "s⁻¹", "<", "1e-05"],
  ["U45C U49C G66U", "s⁻¹", "<", "1e-05"],
  ["A53G U54A G63U", "s⁻¹", "<", "1e-05"],
  ["A12U G40C", "s⁻¹", "=", 0.00529],
  ["G9A U30A", "s⁻¹", "<", "1e-05"],
  ["C34U U54G G63U", "s⁻¹", "<", "1e-05"],
  ["C10A A42U", "s⁻¹", "<", "1e-05"],
  ["U30C G32U C34G G51U", "s⁻¹", "<", "1e-05"],
  ["C10A A39U A52G", "s⁻¹", "<", "1e-05"],
  ["C50G A53G C61U", "s⁻¹", "=", 0.000398],
  ["G41U G44C U54C", "s⁻¹", "<", "1e-05"],
  ["C16A G37U G41A", "s⁻¹", "<", "1e-05"],
  ["G38U G40U C70A", "s⁻¹", "<", "1e-05"],
  ["U30A U65C", "s⁻¹", "=", "4.68e-05"],
  ["U65A", "s⁻¹", "=", 0.00375],
  ["A14G A33G G60U", "s⁻¹", "<", "1e-05"],
  ["A48C G66A", "s⁻¹", "=", "8.27e-05"],
  ["C50G U57A C58G", "s⁻¹", "=", "7.43e-05"],
  ["C16A A33C G40A U56C C67U", "s⁻¹", "<", "1e-05"],
  ["C8U G37U G62U A64U", "s⁻¹", "<", "1e-05"],
  ["G7U G32U C67G", "s⁻¹", "<", "1e-05"],
  ["A6G G38A G43U A48U A52C U69G", "s⁻¹", "<", "1e-05"],
  ["A14G G32A", "s⁻¹", "=", 0.00726],
  ["C11U C34U G66C", "s⁻¹", "<", "1e-05"],
  ["G37U A42C U47A A48U U56A", "s⁻¹", "<", "1e-05"],
  ["G35C A36C A42C G43C G51A", "s⁻¹", "<", "1e-05"],
  ["A12U A48C", "s⁻¹", "=", 0.000341],
  ["U47A U54G", "s⁻¹", "=", 0.00345],
  ["A39G A48U", "s⁻¹", "=", 0.000436],
  ["G32C A33C U49G", "s⁻¹", "<", "1e-05"],
  ["C10G C34A A52U", "s⁻¹", "<", "1e-05"],
  ["A6U C8U C70U", "s⁻¹", "<", "1e-05"],
  ["C11A C16U", "s⁻¹", "=", "9.79e-05"],
  ["C34U G35A", "s⁻¹", "<", "1e-05"],
  ["G29A G32A", "s⁻¹", "=", 0.000588],
  ["C67G C71U", "s⁻¹", "=", "3.07e-05"],
  ["G63A G66C", "s⁻¹", "<", "1e-05"],
  ["U30G G40C", "s⁻¹", "=", 0.000619],
  ["A39C U45A C50G C70G", "s⁻¹", "<", "1e-05"],
  ["G29U G32A G37U G66A", "s⁻¹", "<", "1e-05"],
  ["A15C C58A", "s⁻¹", "=", "8.54e-05"],
  ["U31A A39U C70G", "s⁻¹", "=", 0.000232],
  ["G38C G43A", "s⁻¹", "<", "1e-05"],
  ["G43U A52C G66C C68G", "s⁻¹", "<", "1e-05"],
  ["G44C C67A", "s⁻¹", "=", 0.00486],
  ["C11A A14C A42C U55C A64G", "s⁻¹", "<", "1e-05"],
  ["U30G U46C", "s⁻¹", "=", 0.000377],
  ["G13C U30C", "s⁻¹", "=", "8.07e-05"],
  ["A64C C67G C68A", "s⁻¹", "=", "6.52e-05"],
  ["G13U G43U C61G", "s⁻¹", "<", "1e-05"],
  ["A6G A15G", "s⁻¹", "=", 0.000324],
  ["A15G U30G A64G", "s⁻¹", "=", 0.00272],
  ["G44C U46G", "s⁻¹", "<", "1e-05"],
  ["C8U G13U A39U A42G", "s⁻¹", "<", "1e-05"],
  ["U55G C70A", "s⁻¹", "=", 0.000147],
  ["G29C U31C", "s⁻¹", "=", 0.000184],
  ["G13C U31C", "s⁻¹", "=", 0.000748],
  ["U30G G37A", "s⁻¹", "=", 0.000172],
  ["C11A G44U G59U", "s⁻¹", "=", 0.00015],
  ["C8U A14U G32U G41C C67U", "s⁻¹", "<", "1e-05"],
  ["G7U A53G U57A", "s⁻¹", "<", "1e-05"],
  ["U57A C61U", "s⁻¹", "<", "1e-05"],
  ["U47G U69A", "s⁻¹", "=", 0.000193]
]}
